This collection of values is drawn from PubChem BioAssay (NCI).

# protocol_summary: NCI Yeast Anticancer Drug Screen. Data for the cln2 rad14 strain (AID 165);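 further: 0% = growth equal to vehicle treated cultures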
# experimental_setup: S. cerevisiae cln2 rad14 strain, at 50.0 µM, stronger effect = higher value
About 79,000 compounds went through this panel and 15% of them were active in at least one assay; those are over-represented in the sample as a whole. The source made the active and inactive calls. No stated cut-off is given here; in the data, active means growth inhibition above about 70%; inactive means the rest.
experimental_readout: growth inhibition

INSERT INTO assay_data (compound, recorded_measurement) VALUES
  ('O=c1c2cc(S(=O)(=O)Nc3c(Cl)cccc3Cl)ccc2ncn1NS(=O)(=O)c1ccc2ccccc2c1', '10.4% (inactive)'),
  ('CSc1nc(NC2OCC(OC(C)=O)C(OC(C)=O)C2OC(C)=O)c(N=C(C)C(C)=O)c(=O)[nH]1 (stereo not given)', '4.95% (inactive)'),
  ('NNC(=O)c1nnc(N)o1', '-9.45% (inactive)'),
  ('Oc1cccc2nc3ccccc3cc12', '-10% (inactive)'),
  ('Cc1c(O)c2ccc3ccccc3c2oc1=O', '-37.4% (inactive)'),
  ('COc1ccc2nc(NC(=O)C(=O)C(C#N)c3ccc(Cl)c(Cl)c3)sc2c1 (stereo not given)', '33.9% (inactive)'),
  ('S=C(Cl)Sc1ccc(-c2ccc(SC(=S)Cl)cc2)cc1', '-5.6% (inactive)'),
  ('CCCCCCC(C)NCC(=O)Nc1ccccc1C (stereo not given)', '-44.7% (inactive)'),
  ('CCCc1cc(=O)n(CCCc2ccccc2)c(=O)[nH]1', '-7.75% (inactive)'),
  ('CC1CCCCN1C(CC(=O)c1ccccc1)C(=O)c1ccccc1 (stereo not given)', '17.1% (inactive)'),
  ('C[C@@H]1OC(=O)N2CCCC(=C3SCCCS3)C12 (stereo not given in full)', '-25.1% (inactive)'),
  ('C[n+]1c(/C=C/C=C/c2ccccc2)oc2ccccc21', '-11.2% (inactive)'),
  ('CCCCNC(=O)CCC(NS(=O)(=O)c1ccc(C)cc1)C(=O)NCCCC (stereo not given)', '1.85% (inactive)'),
  ('OC1(C#Cc2ccccc2)c2ccccc2C(O)(C#Cc2ccccc2)c2ccccc21 (stereo not given)', '14.1% (inactive)'),
  ('CC1(C)OC(=O)C=C([O-])O1.CC1(C)OC(=O)C=C([O-])O1.CC[O-].CC[O-].[Ti+4]', '-8.95% (inactive)');

---

# protocol_summary: NCI Yeast Anticancer Drug Screen. Data for the rad50 strain (AID 155);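 further: 0% = growth of vehicle-only cultures of the same strain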
# experimental_setup: S. cerevisiae rad50 strain growth inhibition; at 50.0 µM; stronger effect = higher value
Compounds without any hit were thinned out: in the full panel of roughly 79,000, 15% have a hit.
growth inhibition for assorted compounds
experimental_readout: growth inhibition (%)

INSERT INTO measurements (compound, recorded_measurement) VALUES
  ('CC1C(=O)OCC2=CCN3CCC(OC(=O)C(C)C1(C)O)C23 (configuration not stated)', 2.25),
  ('N#CSCc1ccc(CSC#N)c(Br)c1', 20.2),
  ('Cc1ccc(S(=O)(=O)CO)cc1', 0.5),
  ('Cc1ccc(S(=O)(=O)/N=C/[N-][n+]2cccc(C)c2)cc1', 3.6),
  ('CN=C(NC(=S)N(C)C)N(C)C', -4.3),
  ('CCCCCC1SCC(=O)N1c1nncs1 (configuration not stated)', -1.7),
  ('O=C(Nc1ccc(Br)cc1)OCC1CC2C=CC1C2 (configuration not stated)', 43.5);
